B1: library; numbered along this chain (parent)
chain: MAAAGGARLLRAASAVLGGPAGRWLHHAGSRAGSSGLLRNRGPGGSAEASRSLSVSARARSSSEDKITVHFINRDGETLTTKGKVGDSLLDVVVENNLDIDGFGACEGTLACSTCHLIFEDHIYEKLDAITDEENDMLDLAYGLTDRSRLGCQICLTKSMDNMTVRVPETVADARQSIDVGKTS

variants of: B1; assay: scaled log2 fold change in cell abundance, elesclomol vs control (0 = silent mean, 1 = nonsense mean) (scaled log2 ratio); higher = higher viability under elesclomol (loss of FDX1 cuproptosis function); details: with HEK293T FDX1 KO; elesclomol 40 nM; glucose 10 mM; 11 days;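 further: variant abundance is its share of total variant reads in each endpoint sample, from next-generation sequencing of the integrated ORF PCR-amplified out of genomic DNA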
Answer n if scaled log2 fold change is under 0.1, and y if it is 0.1 or more.

Record excerpt, results attached:
| Mutation Descriptor | Assigned Class |
| --- | --- |
| A3N | n |
| G83Y | y |
| T170V | n |

// inclusive: scaled log2 fold change at least 0.1? input: I100K
y

Now the same for S54M
y

Now the same for G102E
n

Now the same for D139H
n

Now the same for T183E
n
